All values here come from patent US20240034774A1.

# MEASURED_ON: HIV-1 envelope glycoprotein gp120 of virus 7141 (HIV-1)
# ASSAY_INFO: cell-based or functional assay
QUANTITY_KIND: neutralization IC50

2.2.12-1 (antibody, human IgG1, kappa, V domains shown) VH: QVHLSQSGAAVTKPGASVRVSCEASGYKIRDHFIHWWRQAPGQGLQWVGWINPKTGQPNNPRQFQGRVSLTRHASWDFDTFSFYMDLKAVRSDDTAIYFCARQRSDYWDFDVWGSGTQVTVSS VL: DIQMTQSPSSLSARVGDTATITCQANGYLNWYQQRRGKAPKLLIYDGSKLERGVPARFSGRRWGQEYILTINNLQPEDVATYFCQVYEFFGPGTRLDLKR; 7.08 µg/mL

Query binder follows.
Task item: # lookup: neutralization IC50 of 2.3.12-1 (antibody, human IgG1, kappa, V domains shown) VH: QVHLSQSGAAVTKPGASVRVSCEASGYNIRDYFIHWWRQAPGQGLQWVGWINPKTGQPNNPRQFQGRVSLTRHASWDFDTFSFYMDLKAVRSDDTAIYFCARQRSDYWDFDVWGSGTQVTVSS VL: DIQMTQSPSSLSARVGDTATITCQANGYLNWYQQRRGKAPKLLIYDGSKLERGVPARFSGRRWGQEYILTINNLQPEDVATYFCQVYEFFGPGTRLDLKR
Reply: 23.8 µg/mL
